protocol.details: clinical
Format: in vivo, human
conditions: human, in vivo, oral, Study day 1; read-out: Cmax Mean
assay.readout: Cmax (ng/mL)
Write the number in ng/mL without appending the unit.

Note to self: Cmax recorded for CC(=O)O[C@H]1C(=O)[C@@]2(C)[C@H]([C@H](OC(=O)c3ccccc3)[C@]3(O)C[C@H](OC(=O)[C@H](O)[C@@H](NC(=O)c4ccccc4)c4ccccc4)C(C)=C1C3(C)C)[C@]1(OC(C)=O)CO[C@@H]1C[C@@H]2O [Paclitaxel] was 404

---

protocol.details: clinical
Assay type: in vivo, human
conditions: human, in vivo, oral, Study day 22; read-out: Cmax (48-52) Mean
assay.readout: Cmax (ng/mL)
Write down the numeric answer in ng/mL and omit the unit.

Lab note: measured Cmax of CC(=O)O[C@H]1C(=O)[C@@]2(C)[C@H]([C@H](OC(=O)c3ccccc3)[C@]3(O)C[C@H](OC(=O)[C@H](O)[C@@H](NC(=O)c4ccccc4)c4ccccc4)C(C)=C1C3(C)C)[C@]1(OC(C)=O)CO[C@@H]1C[C@@H]2O [Paclitaxel] was 313

---

protocol.details: clinical
Assay type: in vivo, human
conditions: human, in vivo, oral, Study day 22; read-out: Tmax (24-48) Median
assay.readout: Tmax (h)
Number only, in h; omit the unit.

Lookup result for CC(=O)O[C@H]1C(=O)[C@@]2(C)[C@H]([C@H](OC(=O)c3ccccc3)[C@]3(O)C[C@H](OC(=O)[C@H](O)[C@@H](NC(=O)c4ccccc4)c4ccccc4)C(C)=C1C3(C)C)[C@]1(OC(C)=O)CO[C@@H]1C[C@@H]2O ; measured Tmax: 25

---

protocol.details: clinical
Format: in vivo, human
conditions: human, in vivo, oral, Study day 1; read-out: Cmax (0-24) Mean
assay.readout: Cmax (ng/mL)
Only the number, expressed in ng/mL, is required.

Given item CC(=O)O[C@H]1C(=O)[C@@]2(C)[C@H]([C@H](OC(=O)c3ccccc3)[C@]3(O)C[C@H](OC(=O)[C@H](O)[C@@H](NC(=O)c4ccccc4)c4ccccc4)C(C)=C1C3(C)C)[C@]1(OC(C)=O)CO[C@@H]1C[C@@H]2O , the value recorded as its Cmax is 288

---

protocol.details: Pharmacokinetic evaluation of Oraxol in patients with MBC (weeks 1 and 4)
Assay type: in vivo, human
conditions: Study day 22
Kindly state Tmax (0-24) Median for each of the entries shown.
Could you give the number and then its unit, please?

Tmax (0-24) Median recorded for this compound, CC(=O)O[C@H]1C(=O)[C@@]2(C)[C@H]([C@H](OC(=O)c3ccccc3)[C@]3(O)C[C@H](OC(=O)[C@H](O)[C@@H](NC(=O)c4ccccc4)c4ccccc4)C(C)=C1C3(C)C)[C@]1(OC(C)=O)CO[C@@H]1C[C@@H]2O , is 1 h

The compound identified as COc1cc2c(cc1OC)CN(CCc1ccc(-n3nnc(-c4cc(OC)c(OC)cc4NC(=O)c4cc(=O)c5ccccc5o4)n3)cc1)CC2.CS(=O)(=O)O.O [HM30181A, HM30181A methanesulfonate monohydrate] registered its Tmax (0-24) Median at 4.5 h
